folding enthalpy for assorted sequences
Assay: folding enthalpy; higher = less favourable; fluorescence melt of hairpins on a sequencing array, two-state fit
Conditions: sodium 0.088 M

// known answers, use as guide
[
  {
    "Chain Sequence": "GAGAACGGAAACGTTTTC ((.((((....)))).))",
    "folding enthalpy": "-25.3 kcal/mol"
  },
  {
    "Chain Sequence": "CGCGGAAAAATCCGCG ((((((....))))))",
    "folding enthalpy": "-38.1 kcal/mol"
  },
  {
    "Chain Sequence": "GCCCCGCGAAAGCACGGC (((..((....))..)))",
    "folding enthalpy": "-18.3 kcal/mol"
  },
  {
    "Chain Sequence": "GCTACGCGAAAGCATAGC ((((.((....)).))))",
    "folding enthalpy": "-28 kcal/mol"
  },
  {
    "Chain Sequence": "GTTAGACGAAAGTCAAAC (((.(((....))).)))",
    "folding enthalpy": "-18.6 kcal/mol"
  }
]

--- query ---
Item: GGTTGCTCGAAAGAGACC (((..(((....)))))) | folding enthalpy: -13.4 kcal/mol
